# STUDY_TARGET: aldehyde oxidase (hAOX, AOX1) (Homo sapiens)
# Construct: human aldehyde oxidase (hAOX), a cytosolic drug-metabolizing enzyme expressed in the human liver; tissue Gibco; host or cells: human liver cytosol
# Sequence (Q06278 whole entry): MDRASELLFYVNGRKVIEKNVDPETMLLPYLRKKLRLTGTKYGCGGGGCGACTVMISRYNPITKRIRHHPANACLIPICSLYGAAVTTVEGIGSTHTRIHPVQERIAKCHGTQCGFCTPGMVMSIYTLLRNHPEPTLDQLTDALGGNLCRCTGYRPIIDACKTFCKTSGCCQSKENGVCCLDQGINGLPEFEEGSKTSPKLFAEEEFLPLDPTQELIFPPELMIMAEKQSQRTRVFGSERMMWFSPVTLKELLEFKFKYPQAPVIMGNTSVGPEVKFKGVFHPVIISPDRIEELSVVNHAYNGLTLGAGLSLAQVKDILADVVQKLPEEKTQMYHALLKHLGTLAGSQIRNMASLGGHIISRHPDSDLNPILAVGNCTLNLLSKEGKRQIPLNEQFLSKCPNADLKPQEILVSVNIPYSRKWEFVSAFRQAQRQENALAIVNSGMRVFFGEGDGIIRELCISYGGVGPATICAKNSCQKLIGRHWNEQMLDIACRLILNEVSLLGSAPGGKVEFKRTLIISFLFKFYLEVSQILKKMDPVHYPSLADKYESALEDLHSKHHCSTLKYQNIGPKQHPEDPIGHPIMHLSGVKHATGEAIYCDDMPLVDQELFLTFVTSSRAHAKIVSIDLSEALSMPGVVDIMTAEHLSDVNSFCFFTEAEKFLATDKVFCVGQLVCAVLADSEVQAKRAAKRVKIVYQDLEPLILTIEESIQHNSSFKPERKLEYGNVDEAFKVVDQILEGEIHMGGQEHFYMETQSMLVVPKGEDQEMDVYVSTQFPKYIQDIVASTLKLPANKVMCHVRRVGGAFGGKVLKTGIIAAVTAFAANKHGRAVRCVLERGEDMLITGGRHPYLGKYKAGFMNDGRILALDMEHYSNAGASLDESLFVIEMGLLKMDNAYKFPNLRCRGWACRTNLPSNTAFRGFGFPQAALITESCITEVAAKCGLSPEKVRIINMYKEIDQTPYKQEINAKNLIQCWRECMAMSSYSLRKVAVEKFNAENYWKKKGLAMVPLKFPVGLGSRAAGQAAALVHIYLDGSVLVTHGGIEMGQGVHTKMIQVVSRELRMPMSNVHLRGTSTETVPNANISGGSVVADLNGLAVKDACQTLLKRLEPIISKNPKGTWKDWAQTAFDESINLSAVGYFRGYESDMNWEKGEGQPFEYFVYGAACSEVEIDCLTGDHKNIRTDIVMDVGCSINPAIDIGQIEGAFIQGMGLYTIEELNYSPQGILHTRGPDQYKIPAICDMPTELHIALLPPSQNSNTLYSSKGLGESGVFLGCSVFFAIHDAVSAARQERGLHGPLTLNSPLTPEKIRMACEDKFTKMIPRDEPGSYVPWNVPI
# TEST_NAME: Metabolism in human liver cytosol with/without hydralazine (hAOX)
# Type: in vitro ADME
# CONDITION_SET: human, human liver cytosol, pH 7.4; Figure 7A
REPORTED_PROPERTY: half-life at 1 µM

Cc1ncsc1-c1ccc([C@H](C)NC(=O)[C@@H]2C[C@@H](O)CN2C(=O)[C@@H](NC(=O)CCCCNC(=O)COc2c(-c3csc(N4CCOCC4)n3)ccc(F)c2F)C(C)(C)C)cc1 [Compound 33]
> 1.5 h

Continue with the next compound.
IN: Which half-life at 1 µM is reported with aldehyde oxidase (hAOX, AOX1) (Homo sapiens) for this entry: Cc1ncsc1-c1ccc([C@H](C)NC(=O)[C@@H]2C[C@@H](O)CN2C(=O)[C@@H](NC(=O)CCCCN(C)C(=O)COc2c(-c3csc(N4CCOCC4)n3)ccc(F)c2F)C(C)(C)C)cc1 [Compound 34] ?
OUT: > 1.5 h

* * *

# TEST_NAME: Metabolic stability in cryopreserved human hepatocytes
# Format: in vitro ADME
# CONDITION_SET: human, cryopreserved human hepatocytes (pooled, suspension), supplement CSV; human hepatocytes; read-out: HLH t1/2
REPORTED_PROPERTY: half-life at 1 µM (h)
Just the number please, in h, no unit attached.

O=C(COc1cccc2c1C(=O)N(C1CCC(=O)NC1=O)C2=O)NCCOCCOCCNC(=O)COc1c(-c2csc(N3CCOCC3)n2)ccc(F)c1F (centres unmarked)
0.657

IN: Please give the measured half-life at 1 µM for this molecule: Cc1ncsc1-c1ccc([C@H](C)NC(=O)[C@@H]2C[C@@H](O)CN2C(=O)[C@@H](NC(=O)CCCCCCNC(=O)C[C@@H]2N=C(c3ccc(Cl)cc3)c3c(sc(C)c3C)-n3c(C)nnc32)C(C)(C)C)cc1
OUT: 1.36

IN: May I ask what half-life at 1 µM has been recorded for Cc1ncsc1-c1ccc([C@H](C)NC(=O)[C@@H]2C[C@@H](O)CN2C(=O)[C@@H](NC(=O)CN2CCN(C(=O)c3ccc4c(c3)nc(Nc3cccc(Cl)c3)c3ccncc34)CC2)C(C)(C)C)cc1 ?
OUT: 3.63

* * *

compounds and their reported log10 half-life at 1 µM
# TEST_NAME: Metabolic stability in cryopreserved human hepatocytes
# Assay type: in vitro ADME
# CONDITION_SET: human, cryopreserved human hepatocytes (pooled, suspension), Table S1; PROTACs, cryopreserved human hepatocytes; read-out: t1/2
In our notation, the value equals log10 of half-life at 1 µM in min.

Known log10 half-life at 1 µM results, listed for orientation:
Cc1sc2c(c1C)C(c1ccc(Cl)cc1)=N[C@@H](CC(=O)NCCOCCOCCNc1cccc3c1C(=O)N(C1CCC(=O)NC1=O)C3=O)c1nnc(C)n1-2 (stereo partly shown)
1.69
Cc1sc2c(c1C)C(c1ccc(Cl)cc1)=N[C@@H](CC(=O)NCCCCNC(=O)COc1cccc3c1C(=O)N(C1CCC(=O)NC1=O)C3=O)c1nnc(C)n1-2 (stereo partly shown)
2.13
Cc1ncsc1-c1ccc([C@H](C)NC(=O)[C@@H]2C[C@@H](O)CN2C(=O)[C@@H](NC(=O)CCCCCCCCCCC(=O)N2CCN(C(=O)c3cc(Cc4n[nH]c(=O)c5ccccc45)ccc3F)CC2)C(C)(C)C)cc1
1.98
Cc1ncsc1-c1ccc([C@H](C)NC(=O)[C@@H]2C[C@@H](O)CN2C(=O)[C@@H](NC(=O)CCCCCCC(=O)N2CCN(C(=O)c3cc(Cc4n[nH]c(=O)c5ccccc45)ccc3F)CC2)C(C)(C)C)cc1
1.96
Cc1ncsc1-c1ccc([C@H](C)NC(=O)[C@@H]2C[C@@H](O)CN2C(=O)[C@@H](NC(=O)CCCCNC(=O)COc2c(-c3csc(N4CCOCC4)n3)ccc(F)c2F)C(C)(C)C)cc1
1.87
Cc1sc2c(c1C)C(c1ccc(Cl)cc1)=N[C@@H](CC(=O)Nc1ccc(OCCOCCOCCOCCNc3cccc4c3C(=O)N(C3CCC(=O)NC3=O)C4=O)cc1)c1nnc(C)n1-2 (stereo partly shown) [Compound 3, ARV-825, reference compound]
1.44

IN: // log10 half-life at 1 µM lookup, key: Cc1ncsc1-c1ccc([C@H](C)NC(=O)[C@@H]2C[C@@H](O)CN2C(=O)[C@@H](NC(=O)CCCCCCCOc2c(-c3csc(N4CCOCC4)n3)ccc(F)c2F)C(C)(C)C)cc1
OUT: 1.83

IN: Item Cc1ncsc1-c1ccc(CNC(=O)[C@@H]2C[C@@H](O)CN2C(=O)[C@@H](NC(=O)COCCOCCOCCNC(=O)C[C@@H]2N=C(c3ccc(Cl)cc3)c3c(sc(C)c3C)-n3c(C)nnc32)C(C)(C)C)cc1 [Compound 7, MZ1, reference compound] has what recorded log10 half-life at 1 µM?
OUT: 2.32

The measured values listed here are drawn from paper PMC8015227.
